Provide the recorded inhibition at 20 µM for the entries that follow.
Target: human JAK3 (Homo sapiens, UniProt P52333)
Construct: The kinase domain of human JAK3 was amplified from U937mRNA; His tag (pFastBac HTb vector; nickel chelate purification) (N); made in house; host or cells: baculovirus; Sf9 for virus, High Five insect cells for production
Sequence (P52333 822-1111 limits assumed): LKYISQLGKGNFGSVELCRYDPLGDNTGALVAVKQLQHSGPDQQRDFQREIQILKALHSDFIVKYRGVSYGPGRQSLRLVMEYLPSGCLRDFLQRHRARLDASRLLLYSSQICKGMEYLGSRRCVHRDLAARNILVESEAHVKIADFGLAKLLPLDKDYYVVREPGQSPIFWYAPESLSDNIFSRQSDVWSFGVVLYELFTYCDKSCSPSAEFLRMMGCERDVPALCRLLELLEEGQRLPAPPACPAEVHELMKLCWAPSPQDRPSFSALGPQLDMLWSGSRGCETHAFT
Experiment: JAK kinase assay (ELISA or Alphascreen), Jak3
Assay type: biochemical
Conditions: standard conditions, read-out: Jak3 inhibition of enzyme activity

Exercise: What does the record list as inhibition at 20 µM for CC(Nc1cncc(-n2cnc3cc(C#N)ccc32)n1)c1cc(F)cc(F)c1 (stereo not drawn) ?
Solution: < 50%

Exercise: What does the record list as inhibition at 20 µM for CC[C@H](Nc1cncc(-n2cnc3ccccc32)n1)c1ccccc1 ?
Solution: < 50%

Exercise: What does the record list as inhibition at 20 µM for N#Cc1ccc2ncn(-c3cncc(NC4CCc5cc(Br)ccc54)n3)c2c1 (stereo not drawn) ?
Solution: ≥ 50%

Exercise: What does the record list as inhibition at 20 µM for CC(Nc1cncc(-n2cnc3cnccc32)n1)c1ccc(F)cc1 (stereo not drawn) ?
Solution: < 50%

Exercise: What does the record list as inhibition at 20 µM for CC(Nc1cncc(-n2cnc3cc(CNCCN(C)C)ccc32)n1)c1ccc(F)cc1 (stereo not drawn) ?
Solution: < 50%

Exercise: What does the record list as inhibition at 20 µM for CC(Nc1cncc(-n2cnc3ccc(C#N)cc32)n1)c1cccnc1 (stereo not drawn) ?
Solution: < 50%

Exercise: What does the record list as inhibition at 20 µM for CC1CC(Nc2cncc(-n3cnc4ccc(C#N)cc43)n2)c2ccccc21 (stereo not drawn) ?
Solution: < 50%

Exercise: What does the record list as inhibition at 20 µM for Cc1ncc(-n2cnc3cc(C#N)ccc32)nc1N[C@@H](C)c1ccccc1 ?
Solution: ≥ 50%

Exercise: What does the record list as inhibition at 20 µM for C[C@H](Nc1cncc(-n2cnc3cc(NC(=O)N4CCN(C)CC4)ccc32)n1)c1ccccc1 ?
Solution: < 50%

Exercise: What does the record list as inhibition at 20 µM for COc1ccc2c(c1)CCC2Nc1cncc(-n2cnc3ccc(C#N)cc32)n1 (stereo not drawn) ?
Solution: < 50%

Exercise: What does the record list as inhibition at 20 µM for C[C@H](Nc1cncc(-n2cc3ccccc3n2)n1)c1ccc(F)cc1 ?
Solution: < 50%

Exercise: What does the record list as inhibition at 20 µM for N#Cc1ccc2ncn(-c3cncc(NC4CCc5cc(F)ccc54)n3)c2c1 (stereo not drawn) ?
Solution: < 50%

Exercise: What does the record list as inhibition at 20 µM for C[C@H](Nc1cncc(-n2cnc3ccc(CN4CCNCC4)cc32)n1)c1ccc(F)cc1 ?
Solution: ≥ 50%

Exercise: What does the record list as inhibition at 20 µM for CCN(CC)Cc1ccc2ncn(-c3cncc(NC(C)c4ccc(F)cc4)n3)c2c1 (stereo not drawn) ?
Solution: < 50%

Exercise: What does the record list as inhibition at 20 µM for CC(Nc1cncc(-n2cnc3cc(C#N)ccc32)n1)c1cccc(OC(F)(F)F)c1 (stereo not drawn) ?
Solution: < 50%

Exercise: What does the record list as inhibition at 20 µM for CC(Nc1cncc(-n2cnc3ccc(C#N)cc32)n1)c1cccc(C(F)(F)F)c1 (stereo not drawn) ?
Solution: < 50%

Exercise: What does the record list as inhibition at 20 µM for CC(Nc1cncc(-n2cnc3ccc(CO)cc32)n1)c1ccc(F)cc1 (stereo not drawn) ?
Solution: < 50%

Exercise: What does the record list as inhibition at 20 µM for CCN(CC)Cc1ccc2c(c1)ncn2-c1cncc(NC(C)c2ccc(F)cc2)n1 (stereo not drawn) ?
Solution: < 50%

Exercise: What does the record list as inhibition at 20 µM for C[C@H](Nc1cncc(-n2cnc3cc(NC(=O)c4ccc(CN5CCN(C)CC5)cc4)ccc32)n1)c1ccccc1 ?
Solution: < 50%

Exercise: What does the record list as inhibition at 20 µM for C[C@H](Nc1cncc(-n2cnc3ccccc32)n1)c1ccc(F)cc1 ?
Solution: ≥ 50%

Exercise: What does the record list as inhibition at 20 µM for COc1cccc2c1CCC2Nc1cncc(-n2cnc3ccc(C#N)cc32)n1 (stereo not drawn) ?
Solution: ≥ 50%

Exercise: What does the record list as inhibition at 20 µM for CC(Nc1cncc(-n2cnc3ccccc32)n1)c1ccc(-n2ccnc2)cc1 (stereo not drawn) ?
Solution: < 50%

Exercise: What does the record list as inhibition at 20 µM for C[C@H](Nc1cncc(-n2cnc3cc(C#N)ccc32)n1)c1ccccc1 ?
Solution: ≥ 50%

Exercise: What does the record list as inhibition at 20 µM for C[C@H](Nc1cncc(-n2cnc3cc(NS(=O)(=O)c4ccccc4)ccc32)n1)c1ccccc1 ?
Solution: ≥ 50%

Exercise: What does the record list as inhibition at 20 µM for C[C@H](Nc1cncc(-n2cnc3ccc(CN4CCOCC4)cc32)n1)c1ccc(F)cc1 ?
Solution: < 50%

Exercise: What does the record list as inhibition at 20 µM for C[C@H](Nc1cncc(-n2cnc3cccnc32)n1)c1ccccc1 ?
Solution: < 50%

Exercise: What does the record list as inhibition at 20 µM for N#Cc1ccc2c(c1)ncn2-c1cncc(NC2CCc3cc(F)ccc32)n1 (stereo not drawn) ?
Solution: ≥ 50%

Exercise: What does the record list as inhibition at 20 µM for C[C@@H](c1ccccc1)N(C)c1cncc(-n2cnc3cc(C#N)ccc32)n1 ?
Solution: < 50%

Exercise: What does the record list as inhibition at 20 µM for N#Cc1ccc2c(c1)ncn2-c1cncc(N[C@H]2CCc3ccccc32)n1 ?
Solution: ≥ 50%

Exercise: What does the record list as inhibition at 20 µM for O=S(=O)(Nc1ccc(-c2cncc(-n3cnc4ccccc43)n2)cc1)c1ccccc1 ?
Solution: ≥ 50%
